Below, each entry is listed alongside its reported GI50.
Test system: OVCAR-5
experiment: NCI tumour cell line growth inhibition, 48 h
Active and inactive are the calls of the source. No stated cut-off is given here; in the data, active = GI50 up to about 1.1 µM and inactive = higher. Peptide text beside a SMILES is read from it. * marks the point of attachment. Cbz = O=C(OCc1ccccc1)*; CH2Cl = ClC*
parameter: GI50

- COc1ccc(/C=c2\c(=O)[nH]c3nc4ccccc4c(=O)n23)cc1: > 100 µM (inactive)
- C=CCN1C(=O)/C(=C/c2ccco2)N=C1SC/C=C/C: > 100 µM (inactive)
- COc1cc(/C=C/C=C2\CC/C(=C\C=C\c3ccc(O)c(OC)c3)C2=O)ccc1O: > 100 µM (inactive)
- O=C1C(C(c2ccc([N+](=O)[O-])cc2)N2CCOCC2)=C(O)C(c2ccccc2)N1c1ccccc1 (stereo not drawn): > 10 µM (inactive)
- CCC(=O)O[C@H]1CC[C@H]2[C@@H]3CCC4=C/C(=N/OC(=O)c5cccc6c(=O)c7ccccc7[nH]c56)CC[C@]4(C)[C@H]3CC[C@]12C: 33.7 µM (inactive)
- COC(OC)C1OC(CO)C(n2cc(F)c(=O)[nH]c2=O)C1O (stereo not drawn): > 100 µM (inactive)
- COc1cccc(-c2cc(O)c3cc(N4CCCC4)ccc3n2)c1: 0.00328 µM (active)
- NP(=O)(Oc1c2occc2cc2ccc(=O)oc12)N(CCCl)CCCl (stereo not drawn): > 100 µM (inactive)
- O=C1OC(C2OC(=O)c3cc(O)c(O)c(O)c3-c3c(O)c(O)c4oc(=O)c5c(c(O)c(O)c6oc(=O)c3c4c65)-c3c(cc(O)c(O)c3O)C(=O)OCC2O)C2OC(=O)c3c(c(O)c(O)c(O)c3[C@H]2O)-c2c1cc(O)c(O)c2O (stereo partly drawn): 19.7 µM (inactive)
- COC(=O)C1(Cc2ccccc2)Cc2cc3c(cc2C1O)CCC3 (stereo not drawn): 13.6 µM (inactive)
- Cc1nc2c(nc1C)-c1[nH]c3c(c1C(=O)C2=O)CCCC3=O: 2.18 µM (inactive)
- N#CC1(C#N)NC(c2cccnc2)C(C#N)(C#N)NC1c1cccnc1 (stereo not drawn): > 100 µM (inactive)
- O=C(/C=C/c1cccc([N+](=O)[O-])c1)c1cccnc1: > 100 µM (inactive)
- CC(C)CC(NC(=O)OCc1ccccc1)C(=O)NC(Cc1ccccc1)C(=O)CCl (stereo not drawn) (Cbz-Leu-Phe-CH2Cl; configuration not given here): 3.71 µM (inactive)
- COc1ccc2c(c1)[n+]([O-])c(-c1ccc([N+](=O)[O-])cc1)c(N)[n+]2[O-]: > 100 µM (inactive)
- CCSc1c2ccccc2nc2c(OC)ccc(OC)c12: 42.3 µM (inactive)
- Oc1cccnc1/C=N/OCc1ccccc1: > 100 µM (inactive)
- C=CCP(=O)(CC=C)C(Cl)Cl: > 100 µM (inactive)
